target: LXR β LBD protein (Homo sapiens (Human), UniProt P55055); assay: biochemical; format: binding; details: read-out: LXRβ Binding Ki
Sequence (P55055 222-460 limits assumed): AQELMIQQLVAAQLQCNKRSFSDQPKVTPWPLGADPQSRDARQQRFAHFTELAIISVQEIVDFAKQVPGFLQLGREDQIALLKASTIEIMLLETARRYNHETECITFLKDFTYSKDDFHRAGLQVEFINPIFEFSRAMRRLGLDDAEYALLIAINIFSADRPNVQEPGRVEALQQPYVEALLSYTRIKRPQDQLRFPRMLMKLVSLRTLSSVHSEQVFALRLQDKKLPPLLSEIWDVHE
Ki vs 10 nM: less than gives satisfied; not less than gives not satisfied.

These recorded examples may help you get a feel for the data.
compound="CC(C)[C@@H]1CN(c2ccc(F)c(S(C)(=O)=O)c2)CCN1c1nc2ccccc2s1 [7-56]" discrete_label="not satisfied"
compound="CS(=O)(=O)c1cc(N2CCN(C[C@H]3CC[C@@H](C(F)(F)F)CC3)[C@@H](c3ccccc3)C2)ccc1C(N)=O (single isomer, unassigned) [17-39]" discrete_label="not satisfied"
compound="CC(C)[C@@H]1CN(c2ccc(F)c(S(C)(=O)=O)c2)CCN1c1nc2ccc(F)cc2s1 [7-55]" discrete_label="not satisfied"
compound="CC(C)[C@@H]1CN(c2ccc(F)c(S(C)(=O)=O)c2)CCN1c1ccnc(OC(F)F)c1 [Cpd No 44-1]" discrete_label=satisfied
compound="COC(=O)c1cnc(N2CCN(c3ccc(F)c(S(C)(=O)=O)c3)CC2C(C)(C)C)nc1C(F)(F)F (stereo not drawn) [9-5]" discrete_label=satisfied

Then there is this compound:
Data request: Quick check: Ki of CC(C)(O)CC1CN(c2ccc(F)c(S(C)(=O)=O)c2)CCN1c1ccc(C(F)(F)F)cn1 (stereo not drawn) [34-1] under 10 nM?
Data returned: not satisfied

Data origin: patent US10144715B2
